Where do these numbers come from? They come from the CheMixHub drug solubility set.

Experiment: xn = mol fraction of the nth substance listed, in the solute-free solvent
Details: 293.15 K; x2 = 0.9
Assign class by solubility (g/100 g solution): not lower than 4 means yes (1); lower than 4 means no (0).

Reference set (5 entries):
CC(=O)OC(c1ccccc1)C(Cl)(Cl)Cl (stereo unspecified) + CCO + O
yes (1)
O=C(O)C1CSCN1 (stereo unspecified) + O + CC#N
no (0)
CC(=O)OC(c1ccccc1)C(Cl)(Cl)Cl (stereo unspecified) + CC(=O)O + O
yes (1)
O=C1CCc2ccc(OCCCCN3CCN(c4cccc(Cl)c4Cl)CC3)cc2N1 + CCC(C)=O + CCCO
no (0)
COC1=CC(=O)CC(C)C12Oc1c(Cl)c(OC)cc(OC)c1C2=O (stereo unspecified) + CCC(C)=O + CC(C)O
no (0)

Attention now shifts to the item below.
## Task Could you please find out whether CCCCOc1ccc(C(=O)CCN2CCCCC2)cc1.Cl + CCO + CCOC(C)=O has solubility (g/100 g solution) that meets 4 or exceeds it?
## Result yes (1)

====

This listing pairs compounds with measured solubility (g/100 g solution).
Experiment: xn = mol fraction of the nth substance listed, in the solute-free solvent
Conditions: 293.15 K; x2 = 0.9
Returns: the value as a bare number; no unit string appended.

Reference set (3 entries):
CCCCOc1ccc(C(=O)CCN2CCCCC2)cc1.Cl + CO + C1CCOC1
51.3
COC1=CC(=O)CC(C)C12Oc1c(Cl)c(OC)cc(OC)c1C2=O (centres undefined) + CC(C)=O + CC(C)O
3.08
O=C1CCc2ccc(OCCCCN3CCN(c4cccc(Cl)c4Cl)CC3)cc2N1 + CCC(C)=O + CC(C)=O
2.12

## Task Return solubility (g/100 g solution) for the following compound: COC1=CC(=O)CC(C)C12Oc1c(Cl)c(OC)cc(OC)c1C2=O (centres undefined) + CC(=O)CC(C)C + CC(C)O
## Result 0.817

## Task Return solubility (g/100 g solution) for the following compound: CCCCOc1ccc(C(=O)CCN2CCCCC2)cc1.Cl + CCO + O
## Result 40.7

====

Test: xn = mol fraction of the nth substance listed, in the solute-free solvent
Conditions: 313.15 K; x2 = 0.6
Assign class by solubility (g/100 g solution): not lower than 6 means Y; lower than 6 means N.

Reference set (5 entries):
CCCCOc1ccc(C(=O)CCN2CCCCC2)cc1.Cl + CO + C1CCOC1
Y
O=C(O)c1ccc(C(=O)O)o1 + O + COCCOC
Y
O=C1CCc2ccc(OCCCCN3CCN(c4cccc(Cl)c4Cl)CC3)cc2N1 + CCC(C)=O + CCCO
Y
COC1=CC(=O)CC(C)C12Oc1c(Cl)c(OC)cc(OC)c1C2=O (stereo not drawn) + CC(C)=O + CC(C)O
N
O=C(O)c1ccc(C(=O)O)o1 + C1COCCO1 + O
N

## Task Could you please find out whether CCCCOc1ccc(C(=O)CCN2CCCCC2)cc1.Cl + CCO + CCCCCC has solubility (g/100 g solution) that meets 6 or exceeds it?
## Result Y

## Task Could you please find out whether COC1=CC(=O)CC(C)C12Oc1c(Cl)c(OC)cc(OC)c1C2=O (stereo not drawn) + CCC(C)=O + CC(C)O has solubility (g/100 g solution) that meets 6 or exceeds it?
## Result N

## Task Could you please find out whether CC(=O)OC(c1ccccc1)C(Cl)(Cl)Cl (stereo not drawn) + CC(=O)O + O has solubility (g/100 g solution) that meets 6 or exceeds it?
## Result N

## Task Could you please find out whether O=C1CCc2ccc(OCCCCN3CCN(c4cccc(Cl)c4Cl)CC3)cc2N1 + CCC(C)=O + CCOC(C)=O has solubility (g/100 g solution) that meets 6 or exceeds it?
## Result N

## Task Could you please find out whether O=C1CCc2ccc(OCCCCN3CCN(c4cccc(Cl)c4Cl)CC3)cc2N1 + CCC(C)=O + CC(C)=O has solubility (g/100 g solution) that meets 6 or exceeds it?
## Result N

====

Assay: xn = mol fraction of the nth substance listed, in the solute-free solvent
Conditions: 313.15 K; x2 = 0.3
Endpoint Label: solubility (g/100 g solution)

CCCCOc1ccc(C(=O)CCN2CCCCC2)cc1.Cl + CCO + O
56.7
O=C(O)c1ccc(C(=O)O)o1 + O + COCCOC
4.06
CCCCOc1ccc(C(=O)CCN2CCCCC2)cc1.Cl + CO + C1CCOC1
24.9
O=C(O)c1ccc(C(=O)O)o1 + C1CCOC1 + O
6.31
COC1=CC(=O)CC(C)C12Oc1c(Cl)c(OC)cc(OC)c1C2=O (stereo not given) + CC(=O)CC(C)C + CC(C)O
0.938

## Task Return solubility (g/100 g solution) for the following compound: O=C(O)C1CSCN1 (stereo not given) + O + CC#N
## Result 0.0787

## Task Return solubility (g/100 g solution) for the following compound: O=C1CCc2ccc(OCCCCN3CCN(c4cccc(Cl)c4Cl)CC3)cc2N1 + CCC(C)=O + CCCO
## Result 4.46

## Task Return solubility (g/100 g solution) for the following compound: CCCCOc1ccc(C(=O)CCN2CCCCC2)cc1.Cl + CCO + CCOC(C)=O
## Result 22

## Task Return solubility (g/100 g solution) for the following compound: COC1=CC(=O)CC(C)C12Oc1c(Cl)c(OC)cc(OC)c1C2=O (stereo not given) + CC(C)=O + CC(C)O
## Result 1.41

## Task Return solubility (g/100 g solution) for the following compound: COC1=CC(=O)CC(C)C12Oc1c(Cl)c(OC)cc(OC)c1C2=O (stereo not given) + CCC(C)=O + CC(C)O
## Result 1.28

====

This listing pairs molecules with measured solubility (g/100 g solution).
Test: xn = mol fraction of the nth substance listed, in the solute-free solvent
Settings: 283.15 K; x2 = 0.6
Returns: the value as a bare number; no unit string appended.

CCCCOc1ccc(C(=O)CCN2CCCCC2)cc1.Cl + CCO + CCCCCC
18.8
CCCCOc1ccc(C(=O)CCN2CCCCC2)cc1.Cl + CCO + CCOC(C)=O
19.7
O=C1CCc2ccc(OCCCCN3CCN(c4cccc(Cl)c4Cl)CC3)cc2N1 + CCC(C)=O + CCCO
2.25
O=C1CCc2ccc(OCCCCN3CCN(c4cccc(Cl)c4Cl)CC3)cc2N1 + CCC(C)=O + CCOC(C)=O
1.05
COC1=CC(=O)CC(C)C12Oc1c(Cl)c(OC)cc(OC)c1C2=O (stereo unspecified) + CC(C)=O + CC(C)O
1.56
CCCCOc1ccc(C(=O)CCN2CCCCC2)cc1.Cl + CCO + O
35.4
CCCCOc1ccc(C(=O)CCN2CCCCC2)cc1.Cl + CO + C1CCOC1
28.2
COC1=CC(=O)CC(C)C12Oc1c(Cl)c(OC)cc(OC)c1C2=O (stereo unspecified) + CC(=O)CC(C)C + CC(C)O
0.595
COC1=CC(=O)CC(C)C12Oc1c(Cl)c(OC)cc(OC)c1C2=O (stereo unspecified) + CCC(C)=O + CC(C)O
1.22
O=C1CCc2ccc(OCCCCN3CCN(c4cccc(Cl)c4Cl)CC3)cc2N1 + CCC(C)=O + CC(C)=O
1.34

The record that follows has no solubility (g/100 g solution) shown yet.
## Task Return solubility (g/100 g solution) for the following molecule: O=C(O)C1CSCN1 (stereo unspecified) + O + CC#N
## Result 0.365

====

This listing pairs compounds with measured solubility (g/100 g solution).
Assay: xn = mol fraction of the nth substance listed, in the solute-free solvent
Details: 303.15 K; x2 = 0.6
Returns: the value as a bare number; no unit string appended.

Reference set (3 entries):
CCCCOc1ccc(C(=O)CCN2CCCCC2)cc1.Cl + CCO + O
48
CCCCOc1ccc(C(=O)CCN2CCCCC2)cc1.Cl + CCO + CCCCCC
27.3
O=C(O)c1ccc(C(=O)O)o1 + C1CCOC1 + O
7.24

## Task Return solubility (g/100 g solution) for the following compound: O=C(O)c1ccc(C(=O)O)o1 + O + COCCOC
## Result 6.14

## Task Return solubility (g/100 g solution) for the following compound: CC(=O)OC(c1ccccc1)C(Cl)(Cl)Cl (stereo not drawn) + CC(=O)O + O
## Result 3.47

## Task Return solubility (g/100 g solution) for the following compound: O=C(O)c1ccc(C(=O)O)o1 + C1COCCO1 + O
## Result 3.77

## Task Return solubility (g/100 g solution) for the following compound: COC1=CC(=O)CC(C)C12Oc1c(Cl)c(OC)cc(OC)c1C2=O (stereo not drawn) + CCC(C)=O + CC(C)O
## Result 1.98

## Task Return solubility (g/100 g solution) for the following compound: COC1=CC(=O)CC(C)C12Oc1c(Cl)c(OC)cc(OC)c1C2=O (stereo not drawn) + CC(=O)CC(C)C + CC(C)O
## Result 1.03

## Task Return solubility (g/100 g solution) for the following compound: CCCCOc1ccc(C(=O)CCN2CCCCC2)cc1.Cl + CO + C1CCOC1
## Result 39.8

## Task Return solubility (g/100 g solution) for the following compound: CC(=O)OC(c1ccccc1)C(Cl)(Cl)Cl (stereo not drawn) + CC(C)O + O
## Result 4.68

## Task Return solubility (g/100 g solution) for the following compound: CC(=O)OC(c1ccccc1)C(Cl)(Cl)Cl (stereo not drawn) + CCO + O
## Result 3.24

## Task Return solubility (g/100 g solution) for the following compound: O=C1CCc2ccc(OCCCCN3CCN(c4cccc(Cl)c4Cl)CC3)cc2N1 + CCC(C)=O + CC(C)=O
## Result 2.82

## Task Return solubility (g/100 g solution) for the following compound: O=C(O)c1ccc(C(=O)O)o1 + O + COCCOCCOC
## Result 6.23
